# Test system: fresh pieces of apple (variety: Mutsu)
# Experiment summary: Ethylene concentration lowering effect for apple (ethylene in hermetically closed jar, tubular gas detector)
# Conditions: Table 9; DAY 1; single substances 3 g, mixtures 1.5 g + 1.5 g; 20 g apple, 23° C.
Below, each entry is listed alongside its reported Concentration of ethylene DAY 1.
Please answer using a numeric value trailed by its unit.

Some solved entries appear below for comparison.
Reported Concentration of ethylene DAY 1 ( O=C([O-])O.[Na+] [Sodium hydrogencarbonate, sodium hydrogencarbonate] ) = 275 ppm

Reported Concentration of ethylene DAY 1 ( O=C(O)CC(O)(CC(=O)O)C(=O)O ) = 275 ppm

Reported Concentration of ethylene DAY 1 ( O=C([O-])CC(O)(CC(=O)[O-])C(=O)O.[Na+].[Na+] [Disodium citrate, disodium citrate] ) = 250 ppm

Then this molecule:
Reported Concentration of ethylene DAY 1 ( O=C([O-])CC(O)(CC(=O)O)C(=O)O.[Na+] [Monosodium citrate, monosodium citrate] ) = 250 ppm
